The entries below come with measured viability at 48 h, 10 µM values attached.
assay: Cytotoxicity against human HEK293 cells assessed as cell viability at 10 uM measured after 48 hrs by MTS assay relative to vehicle control; type: cell-based; settings: read-out: Activity
Give just the number in %; leave the unit off.

May I ask what viability at 48 h, 10 µM has been recorded for COc1cc(OC)cc(-c2coc3cc(O)ccc3c2=O)c1 ?
80

// viability at 48 h, 10 µM lookup, key: O=c1c(-c2ccc(F)cc2)coc2cc(O)ccc12
78

Fill in the blank: the reported viability at 48 h, 10 µM of CC(C)(Oc1ccc(CCNC(=O)c2ccc(Cl)cc2)cc1)C(=O)O [BEZAFIBRATE] is ____.
76

* * *

biological target: Peroxisome proliferator-activated receptor delta (Homo sapiens, UniProt Q03181); assay: Agonist activity at human PPARdelta expressed in HEK293 cells cotransfected with PPREx4-TK-luc assessed as activation of luciferase activity measured after 48 hrs by transactivation assay
Sequence (Q03181 whole entry): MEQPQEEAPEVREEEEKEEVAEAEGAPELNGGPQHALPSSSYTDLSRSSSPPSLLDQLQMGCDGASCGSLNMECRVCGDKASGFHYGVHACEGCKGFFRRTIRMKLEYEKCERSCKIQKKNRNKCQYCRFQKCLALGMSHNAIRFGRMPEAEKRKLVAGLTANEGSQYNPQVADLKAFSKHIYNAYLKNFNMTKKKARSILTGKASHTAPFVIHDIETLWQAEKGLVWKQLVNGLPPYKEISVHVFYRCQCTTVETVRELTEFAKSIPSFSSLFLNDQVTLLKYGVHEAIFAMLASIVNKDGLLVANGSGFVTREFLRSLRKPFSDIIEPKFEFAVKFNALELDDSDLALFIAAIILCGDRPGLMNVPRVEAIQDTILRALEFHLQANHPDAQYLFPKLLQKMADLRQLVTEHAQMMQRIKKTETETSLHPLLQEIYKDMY
EC50 overview
Give the quantity in µM, number only.

Past entries and their recorded results:
molecule=COc1cccc(-c2coc3cc(O)ccc3c2=O)c1 readout_units=µM number=12.4
molecule=O=c1c(-c2ccc(F)cc2)coc2cc(O)ccc12 readout_units=µM number=24.4
molecule="O=c1c(-c2ccc3c(c2)OCO3)coc2cc(O)ccc12 [PSEUDOBAPTOGENIN]" readout_units=µM number=22.3

Now let's try a different one.
// EC50 lookup, key: COc1cc(OC)cc(-c2coc3cc(O)ccc3c2=O)c1
17.2

* * *

Each entry below carries its recorded pEC50.
molecular target: Peroxisome proliferator-activated receptor alpha (Homo sapiens); experiment: Agonist activity at human PPARalpha expressed in HEK293 cells cotransfected with PPREx4-TK-luc assessed as activation of luciferase activity measured after 48 hrs by transactivation assay
Sequence (Q07869 whole entry): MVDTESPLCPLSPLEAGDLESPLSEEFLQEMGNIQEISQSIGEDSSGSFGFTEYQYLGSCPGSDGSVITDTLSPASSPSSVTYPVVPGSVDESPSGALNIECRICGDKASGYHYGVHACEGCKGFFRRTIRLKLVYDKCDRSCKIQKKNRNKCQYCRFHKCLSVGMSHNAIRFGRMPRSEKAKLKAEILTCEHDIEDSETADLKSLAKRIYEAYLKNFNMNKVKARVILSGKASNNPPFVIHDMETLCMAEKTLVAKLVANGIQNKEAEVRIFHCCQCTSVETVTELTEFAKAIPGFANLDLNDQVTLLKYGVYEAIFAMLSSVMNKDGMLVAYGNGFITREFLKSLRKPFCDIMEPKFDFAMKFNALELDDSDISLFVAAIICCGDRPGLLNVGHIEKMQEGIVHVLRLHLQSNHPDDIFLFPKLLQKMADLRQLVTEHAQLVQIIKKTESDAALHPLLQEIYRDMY
Answer as the number alone; pEC50 is minus log10 of concentration in mol/L.

structure=COc1cccc(-c2coc3cc(O)ccc3c2=O)c1 number=4.48

Turning to the following compound.
Consider the compound O=c1c(-c2ccc(F)cc2)coc2cc(O)ccc12 and give its measured pEC50.
4.64

* * *

target: Peroxisome proliferator-activated receptor gamma (Homo sapiens); experiment: Agonist activity at human PPARgamma expressed in HEK293 cells cotransfected with PPREx4-TK-luc assessed as activation of luciferase activity measured after 48 hrs by transactivation assay
Sequence (P37231 whole entry): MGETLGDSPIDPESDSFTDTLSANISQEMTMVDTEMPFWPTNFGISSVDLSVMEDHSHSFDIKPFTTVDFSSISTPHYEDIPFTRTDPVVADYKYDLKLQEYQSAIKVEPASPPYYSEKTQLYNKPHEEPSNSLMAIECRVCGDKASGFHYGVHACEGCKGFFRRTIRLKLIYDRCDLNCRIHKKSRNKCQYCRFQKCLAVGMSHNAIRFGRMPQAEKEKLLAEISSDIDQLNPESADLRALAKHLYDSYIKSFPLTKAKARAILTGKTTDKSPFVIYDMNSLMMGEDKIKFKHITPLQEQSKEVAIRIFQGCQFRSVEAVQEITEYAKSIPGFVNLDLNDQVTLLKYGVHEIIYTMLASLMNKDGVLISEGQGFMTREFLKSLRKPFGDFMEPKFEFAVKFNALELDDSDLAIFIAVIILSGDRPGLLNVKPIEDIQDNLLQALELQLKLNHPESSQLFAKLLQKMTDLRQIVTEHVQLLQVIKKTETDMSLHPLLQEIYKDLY
QUANTITY_NAME: pEC50
Lab note — pEC50 values are minus log10 of concentrations in M.

Consider the compound shown here: CC(C)(Oc1ccc(CCNC(=O)c2ccc(Cl)cc2)cc1)C(=O)O [BEZAFIBRATE] What is its recorded pEC50?
4.15
